Source of measurements: PubChem BioAssay (NCI)

The following compounds are shown together with reported TGI values.
# Test system: NCI-H226 lung
# measurement_protocol: NCI tumour cell line growth inhibition, 48 h
outcome_measure: TGI

>>> print(df.to_string())
                                    compound  assay_result
 0  O=C1c2ccccc2C2(c3ccc(Cl)cc3)N[C@@H]3CCCC[C@@H]3N12 (stereo partly specified)      > 100 µM
 1     Cc1ccc(Cl)c2c(=O)cc(-c3ccccc3)[nH]c12      > 100 µM
 2                 O=c1cnc2cc3ccccc3cc2[nH]1      > 100 µM
 3     CC(C)NCCNC(=O)c1ccccc1Nc1c(Cl)cccc1Cl       30.1 µM
 4  C1CC[N-]CC1.C1CC[N-]CC1.C1CC[N-]CC1.C1CC[N-]CC1.[Cl][Rh][Cl]      > 100 µM
 5  Cc1cccc(C(C)(C)C)c1NC(=O)C(=O)C(C(=O)/C=C\c1ccccc1)C1OC(=O)c2ccccc21 (stereo unspecified)      > 100 µM
 6  CN1C(=O)C(CCO)(C(C)(C)C)c2ccccc21 (stereo unspecified)      > 100 µM
 7            Nc1cc2ncnc(Nc3cccc(Br)c3)c2cn1         71 µM
 8         Cc1cc2nc3c(N)nn(CCN(C)C)c3nc2cc1C       79.4 µM
 9        N#Cc1c(C(=O)c2ccccc2)cnn1-c1ccccc1       > 25 µM
10  c1ccc2c(c1)ccc1nc(-c3ccc4c(c3)OCO4)c3c(c12)CCC3      > 100 µM

###

Below: a set of entries, each annotated with reported TGI.
# Test system: SF-539 CNS
# measurement_protocol: NCI tumour cell line growth inhibition, 48 h

molecule	TGI
O=C1c2ccccc2C2(c3ccc(Cl)cc3)N[C@@H]3CCCC[C@@H]3N12 (some centres undefined)	> 100 µM
Cc1ccc(C(CN(C)C)C(=O)c2ccccc2)cc1 (centres undefined)	10.7 µM
C1CC[N-]CC1.C1CC[N-]CC1.C1CC[N-]CC1.C1CC[N-]CC1.[Cl][Rh][Cl]	> 100 µM
O=C(O)CNc1c2ccccc2nc2ccccc12	> 100 µM
CC1=C([Se]CC(OC(=O)CC[Se]c2ccccc2)C(=O)NCCCCCC(=O)OCc2ccccc2)C(=O)c2ccccc2C1=O (centres undefined)	6.03 µM
COC(=O)C1=C(C)N(NC(N)=O)C2(N)N(NC(N)=O)C(C)=C(C(=O)OC)C12C(=O)OC (centres undefined)	> 100 µM
CC[C@]1(O)CC2CN(CCc3c([nH]c4ccccc34)[C@@](C(=O)OC)(c3cc4c(cc3OC)N(C)[C@H]3[C@@](O)(C(=O)OC)[C@H](OC(C)=O)[C@]5(CC)C=CCN6CC[C@]43[C@@H]65)C2)C1 (some centres undefined)	0.293 µM
C[C@@H]1C=C(CCCCCCCCCCC[C@H](O)[C@@H]2CCC(=O)O2)C(=O)O1	> 100 µM
CCCC(CC)c1cc(O)c(O)cc1C(CC)CCC (centres undefined)	> 10 µM
Cc1ccc(C2(N3CCOCC3)OC(C)(C)c3cccc4cccc2c34)cc1 (centres undefined)	34.8 µM
O=C(/C=C/c1cccnc1)NCCCCC1CCN(C(=O)c2ccccc2)CC1	> 100 µM
OCCCCC#Cc1ccccc1C#Cc1ccccc1	24.1 µM
CC(=O)Nc1ccc(/C=C/[N+](=O)[O-])cc1	6.35 µM
Clc1ccc(Cc2nc3ccccc3nc2-c2cccc(Cl)c2)cc1	4.92 µM

###

Each entry below lists one item and its recorded GI50 value.
# System: CCRF-CEM leukemia
# measurement_protocol: NCI tumour cell line growth inhibition, 48 h

molecule	GI50
CC1=C(/C=C/C(C)=C\C=C\C(C)=C\C(=O)Nc2ccc3c(c2)OCO3)C(C)(C)CCC1	22.6 µM
CCOP(=O)(OCC)C(NC(c1ccccc1)c1ccccc1)c1ccccc1 (stereo not given)	18.2 µM
Nc1ccccc1C#C/C=C\C#Cc1ccccc1C(F)(F)F	17.7 µM
COc1c(O)c2c(c3cc(C(=O)N4CCc5c4c(O)c(OC)c4[nH]c(C(=O)N6CC7CC78C6=CC(=O)c6[nH]cc(C)c68)cc54)[nH]c13)CCN2C(N)=O (stereo not given)	4.39 ng/mL
N[C@@H](Cc1c[nH]c2ccccc12)C(=O)NC1CCN(C(=O)c2c[nH]c3ccccc23)CC1	> 100 µM

###

# Tested on: HCT-15 colon
# measurement_protocol: NCI tumour cell line growth inhibition, 48 h; in the data active = GI50 below about 0.43 µM; inactive = the rest
Classes used: TRUE (active), FALSE (inactive)

compound	label
O=C(/C=C/c1cccnc1)NCCCCC1CCN(C(=O)c2ccccc2)CC1	TRUE
C[C@]12CCC3[C@@H](C[C@@H]4SC(Nc5ccccc5)=N[C@@]45CC(=O)CC[C@]35C)[C@@H]1CCC2=O (some centres undefined)	FALSE
COP(=O)(OC)C(NC(c1ccccc1)c1ccccc1)c1ccc2c(c1)OCO2 (centres undefined)	FALSE
c1ccc(Cc2nc3ccc(Nc4ncnc5ccccc45)cc3[nH]2)cc1	FALSE
C=C1C(=O)O[C@H]2[C@H]1CC/C(COC(=O)NCc1cc3ccccc3[nH]1)=C\CC[C@@]1(C)O[C@@H]21	FALSE
[Cl][Bi]([O]c1ccccn1)[O]c1ccccn1	FALSE
OCc1cn(Cc2cccc(Cl)c2)c2ccccc12	FALSE
CC[C@]1(O)CC2CN(CCc3c([nH]c4ccccc34)[C@@](C(=O)OC)(c3cc4c(cc3OC)N(C)[C@H]3[C@@](O)(C(=O)OC)[C@H](OC(C)=O)[C@]5(CC)C=CCN6CC[C@]43[C@@H]65)C2)C1 (some centres undefined)	TRUE
COCCn1cc(-c2csc(-c3c[nH]c4ccccc34)n2)c2cccnc21	FALSE
COc1ccc(-c2cc(-c3ccc(OC)c(OC)c3)nc(SCCCC(=O)NO)n2)cc1	FALSE
Cc1ccc2c(c1)nc(C(=O)c1ccco1)c(C(F)(F)F)[n+]2[O-]	FALSE
OCCCCC#Cc1ccccc1C#Cc1ccccc1	FALSE
CCN(Cc1cccc(OC)c1)c1ccc(CO)c(Cl)c1	FALSE
CC(=O)OC[C@H]1O[C@@H](n2ccc(=O)[nH]c2=O)[C@H](OC(C)=O)[C@@H]1OC(C)=O	FALSE

###

# Test system: HOP-92 NSCLC
# measurement_protocol: NCI tumour cell line growth inhibition, 48 h
outcome_measure: log10 of TGI (log10 of the value in µM)

>>> df
                                   molecule  assay_result
0  C=C(C)C(=O)O[C@H]1CC2(CO)O[C@@H]2CC/C(COC(C)=O)=C/C2OC(=O)C(=C)[C@@H]21 (some centres undefined)          1.72
1  CCOP(=O)(OCC)C(NC(c1ccccc1)c1ccccc1)c1ccccc1 (centres undefined)          1.50
2  CC(C)Oc1cc2c(cc1O)CC[C@@H]1[C@@H]2CC[C@]2(C)[C@@H](O)CC[C@@H]12          1.53
3       Oc1ccc(Cc2ccc(O)c3ncccc23)c2cccnc12         -1.29
4  COc1ccc(/C=C/C(=O)c2cc3c(N)c(C(=O)Nc4ccccc4Cl)sc3nc2C)cc1          0.62

###

# System: SK-MEL-2 melanoma
# measurement_protocol: NCI tumour cell line growth inhibition, 48 h

compound	GI50
Oc1ccc(Cc2ccc(O)c3ncccc23)c2cccnc12	0.228 µM
CC(C)(C)N1CCC1C(N)=O (centres undefined)	> 100 µM
CC12CCC3C(CC=C4CC(O)CCC43C)C1C/C(=C\N1CCCC1)C2=O (centres undefined)	> 100 µM
Cc1c(C#N)cccc1-c1cc(-c2cn(Cc3cccc(C(C)(C)O)n3)nn2)nc(N)n1	21.3 µM
COc1ccccc1-[n+]1cc(-c2ccc(-c3ccccc3)cc2)n2c1CCCCC2	0.237 µM
CC(=O)OC1C(=O)C(O)C(C)OC1O[C@@H]1C[C@@]2(C)[C@@H]3CC=C4[C@@H](C[C@H](O)C(=O)C4(C)C)[C@]3(C)C(=O)C[C@]2(C)[C@H]1[C@@](C)(O)C(=O)/C=C/C(C)(C)O (some centres undefined)	0.055 µM
C(=N\Nc1ccccn1)/c1ccccn1	> 100 µM
C1CC[N-]CC1.C1CC[N-]CC1.C1CC[N-]CC1.C1CC[N-]CC1.[Cl][Rh][Cl]	12.7 µM
Oc1ccc(/C=N\Nc2ccccn2)c(O)c1	9.43 µM
COCCn1cc(-c2csc(-c3c[nH]c4ccccc34)n2)c2cccnc21	7.38 µM
c1ccc(Cc2nc3ccc(Nc4ncnc5ccccc45)cc3[nH]2)cc1	> 25 µM
COc1cc(Nc2nc3cc(N)cc(N)c3nc2-c2ccccc2)cc(OC)c1	12 µM
CCOP(=O)(OCC)C(NC(c1ccccc1)c1ccccc1)c1ccccc1 (centres undefined)	22.3 µM
C=C1C(=O)O[C@H]2[C@H]1CC/C(COC(=O)NCc1cc3ccccc3[nH]1)=C\CC[C@@]1(C)O[C@@H]21	2.46 µM
